Every entry's value here was drawn from patent US20160185837A1.

Molecular target: T1, human GIP receptor (hGIPr) (Homo sapiens, UniProt P48546)
T1 construct: expressed in transfected cells
T1 sequence (P48546 22-466): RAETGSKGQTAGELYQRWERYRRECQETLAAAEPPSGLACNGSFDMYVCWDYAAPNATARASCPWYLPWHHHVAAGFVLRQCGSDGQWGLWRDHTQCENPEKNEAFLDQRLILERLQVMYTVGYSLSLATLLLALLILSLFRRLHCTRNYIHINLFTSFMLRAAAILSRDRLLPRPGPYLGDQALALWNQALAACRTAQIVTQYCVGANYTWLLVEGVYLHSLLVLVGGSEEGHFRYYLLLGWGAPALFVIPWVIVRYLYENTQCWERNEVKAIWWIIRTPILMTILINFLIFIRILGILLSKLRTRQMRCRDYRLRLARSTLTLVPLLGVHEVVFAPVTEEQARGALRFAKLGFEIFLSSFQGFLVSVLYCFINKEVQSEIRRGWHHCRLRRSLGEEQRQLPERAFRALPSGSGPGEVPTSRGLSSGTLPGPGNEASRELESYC
Assay: BSA-cAMP assay, cells expressing human GIP receptor
Type: cell-based
Details: Batch 1; BSA-cAMP assay; read-out: hGIPr cAMP activity EC50
Method: For human GIPr, two different lines were used, shown as “hGIPr” and “hGIPr (C3)” in Table 11. One basic cAMP assays was performed, differing in the medium used for the assay, the “BSA-cAMP assay”: BSA-based assay medium: 0.1% bovine serum albumin (BSA) in […] cAMP levels were measured using a commercially available cAMP dynamic 2 HTRF kit (Cisbio, Cat #62AM4PEJ), following the two step protocol as per manufacturer's recommendations. […]
pEC50: −log10 of the molar value.
Endpoint name: pEC50

IP373 (protein) YSEGTHTSDFSKLLERQAIDEFIAWLLKGGAAAGGSGSTASSGSGSATGGGGAATHTCPPC ... 11.27

(I) IP351 (protein) YSEGTFISDYSIAMDKIHQQDFVNWLLAQKPSSGAPPPSGGGGSGGGGSGGGGSGGGGSACPPC
(II) IP301 (protein) YSEGTFTSDVSSYLEREAIDEFIAWLLKGGAAAGGSGSTASSGSGSATGGGGAATHTCPPC
Data request: Input pair: I , II . Output: entry with lower pEC50. Write down the label of the entry you select.
Data returned: II

(I) IP366 (protein) YSEGTFTSDYRMLKERQAIDEFIAWLLKGGAAAGGSGSTASSGSGSATGGGGAATHTCPPC
(II) IP375 (protein) YSEGTHTSLFSKLLERQAIDEFIAWLLKGGAAAGGSGSTASSGSGSATGGGGAATHTCPPC
Data request: Lab note: check whether I or II has the lower measured pEC50. // caller expects the label of the chosen entry
Data returned: I
(I: 9.85, II: 10.11)
